test system: PCTK1; construct: gene CDK16; conditions: concentration: 1 μM,replicates: in singlicate; n = 1;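 also: KINOMEscan kinase panel screen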
Listed here: items and their measured %Inh.
MEASURED QUANTITY: %Inh (%)

| COMPOUND | MEASURED QUANTITY | RECORDED RESULT |
| --- | --- | --- |
| Nc1nc(Nc2ccccc2)cc(-c2ccc3c(N)n[nH]c3c2)n1 [GSK2225749] | %Inh | 0 |
| Cc1n[nH]c2ccc(-c3cc(OC[C@@H](N)Cc4ccccc4)cnc3-c3ccoc3)cc12.O=C(O)C(F)(F)F.O=C(O)C(F)(F)F [GSK507358] | %Inh | 4 |
| Cl.Oc1cc(-c2nc(-c3ccccc3)[nH]c2-c2ccncc2)ccc1Cl [SB-386023] | %Inh | 0 |
| Cc1ccc2c(-c3ccncc3)c(-c3ccc(F)cc3)nn2c1.Cl [GW461484] | %Inh | 0 |
| C[C@H]1Oc2cc(cnc2N)-c2c(nn(C)c2C#N)CN(C)C(=O)c2ccc(F)cc21 | %Inh | 0 |
| O=C(NCCCN1CCOC1=O)c1cnc(NCc2cc(Cl)ccc2Cl)nc1NC1CCCC1 | %Inh | 0 |
| Cc1cc2cn[nH]c2cc1-c1cccc2c(N)c(C(N)=O)nnc12 | %Inh | 26 |
| CC(C)N1C(=O)Cc2cc(Nc3ncc(C(F)(F)F)c(NCc4cccc(S(C)(=O)=O)c4)n3)ccc21 | %Inh | 0 |
| CN(C)CCOc1ccc(-c2cc(-c3c[nH]nc3-c3ccccn3)ccn2)cc1 [GW835314] | %Inh | 3 |
| CCn1c(-c2nonc2N)nc2c(C#CC(C)(C)O)nc(OCCN)cc21.Cl.Cl [GSK902056] | %Inh | 2 |
| Cc1occc1-c1nc(N)c(OC[C@@H](N)Cc2c[nH]c3ccccc23)cc1-c1cc2c(C)n[nH]c2cn1 [GSK1660450] | %Inh | 10 |
| CC(C)Nc1cc(-c2ccc3c(N)n[nH]c3c2)nc(N)n1 [GSK2221681] | %Inh | 0 |
| NC(=O)c1cc(-c2ccccc2)cc2c(C3CCNCC3)c[nH]c12 [GSK301362] | %Inh | 9 |
| Cl.Cl.NC[C@H](Cc1ccc(C(F)(F)F)cc1)NC(=O)c1cc(Br)c(-c2ccnc3[nH]ccc23)s1 [GSK1487252] | %Inh | 0 |
| CN(C)CC(O)COc1ccc(Nc2nccc(-c3cnn4nc(N5CCOCC5)ccc34)n2)cc1 (stereo not drawn) [GW767488] | %Inh | 97.6 |
| CCN(CC)CCOc1ccc(Nc2ncc3cc(-c4c(Cl)cccc4Cl)c(=O)n(C)c3n2)cc1 [SB-601273] | %Inh | 0 |
| C=CC(=O)Nc1cc2c(Nc3ccc(F)c(Cl)c3)ncnc2cc1OCCCN1CCOCC1 [GW781483] | %Inh | 1 |
| CCN(CC)CCCCNc1ncc2cc(-c3c(Cl)cccc3Cl)c(NC(=O)NC(C)(C)C)nc2n1 | %Inh | 0 |

* * *

system: FLT4; settings: concentration: 1 μM,replicates: in singlicate; n = 1
Please note: Met applies when %Inh is 10% or greater, and Not met applies otherwise.

| STRUCTURE STRING | QUALITATIVE LABEL |
| --- | --- |
| CN(C)CCOc1ccc(-c2cc(-c3c[nH]nc3-c3ccccn3)ccn2)cc1 | Met |
| O=C(NCCNc1ccnc(NCc2ccc(F)cc2)n1)c1cc2ccccc2s1 | Not met |
| CNC(=O)c1ccccc1Sc1ccc2c(/C=C/c3ccccn3)n[nH]c2c1 | Met |
| Nc1nc(Nc2ccccc2)cc(-c2ccc3c(N)n[nH]c3c2)n1 | Not met |
| Cc1ccc(-n2nc(C(C)(C)C)cc2NC(=O)Nc2ccc(OCCN3CCOCC3)c3ccccc23)cc1 | Met |
| CCn1c(-c2nonc2N)nc2c(C#CC(C)(C)O)nc(OCCN)cc21.Cl.Cl | Not met |
| Cl.Oc1cc(-c2nc(-c3ccccc3)[nH]c2-c2ccncc2)ccc1Cl | Not met |
| CCN(CC)CCCCNc1ncc2cc(-c3c(Cl)cccc3Cl)c(NC(=O)NC(C)(C)C)nc2n1 | Met |
| C[C@H]1Oc2cc(cnc2N)-c2c(nn(C)c2C#N)CN(C)C(=O)c2ccc(F)cc21 | Not met |
| CC(C)N1C(=O)Cc2cc(Nc3ncc(C(F)(F)F)c(NCc4cccc(S(C)(=O)=O)c4)n3)ccc21 | Met |
| COc1ccc(C[C@@H](CN)NC(=O)c2cc(Br)c(-c3ccnc4[nH]ccc34)s2)cc1.Cl.Cl | Met |
| Cc1occc1-c1nc(N)c(OC[C@@H](N)Cc2c[nH]c3ccccc23)cc1-c1cc2c(C)n[nH]c2cn1 | Met |
| CCN(CC)CCOc1ccc(Nc2ncc3cc(-c4c(Cl)cccc4Cl)c(=O)n(C)c3n2)cc1 | Met |
